- System Name: Abf1 (UniProt P14164)
- Sequence: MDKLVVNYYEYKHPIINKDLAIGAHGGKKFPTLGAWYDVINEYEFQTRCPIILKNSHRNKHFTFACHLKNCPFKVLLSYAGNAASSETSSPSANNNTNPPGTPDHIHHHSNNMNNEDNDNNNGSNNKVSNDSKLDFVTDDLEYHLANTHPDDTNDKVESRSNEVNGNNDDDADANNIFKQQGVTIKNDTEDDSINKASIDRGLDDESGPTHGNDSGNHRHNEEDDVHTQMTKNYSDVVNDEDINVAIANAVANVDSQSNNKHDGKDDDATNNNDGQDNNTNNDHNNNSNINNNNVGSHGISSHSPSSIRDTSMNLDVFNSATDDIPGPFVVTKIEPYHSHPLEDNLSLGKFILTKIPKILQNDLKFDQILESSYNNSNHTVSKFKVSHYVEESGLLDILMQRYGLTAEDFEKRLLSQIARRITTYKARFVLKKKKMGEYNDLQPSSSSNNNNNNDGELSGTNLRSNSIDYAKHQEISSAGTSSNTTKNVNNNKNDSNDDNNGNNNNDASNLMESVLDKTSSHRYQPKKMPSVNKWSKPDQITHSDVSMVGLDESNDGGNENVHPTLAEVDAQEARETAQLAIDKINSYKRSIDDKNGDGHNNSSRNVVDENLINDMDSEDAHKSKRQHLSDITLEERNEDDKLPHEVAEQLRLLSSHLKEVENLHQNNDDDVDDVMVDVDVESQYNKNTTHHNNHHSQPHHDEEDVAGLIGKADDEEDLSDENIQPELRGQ
- Assay Remarks: PBM E-score (8-mer binding enrichment) (E-score (-0.5 to 0.5)); higher = stronger / more preferred TF binding
- Conditions Used: protein concentration: 200 nM; construct: GST-full length
Whole data set: some 33,000 sequences, median “E-score (-0.5 to 0.5)” near -0.015, cut for the highest 2% near 0.3. This excerpt belongs to a sample that is enriched for the highest values.
Assign Met whenever PBM E-score does not fall below 0.05; assign Not met whenever it does.

- ATGCAGCG: Not met
- ATGACAAG: Met
- AGCGTGAC: Met
- CAAAATCA: Met
- AGTACCGG: Not met
- GAGTGAAC: Not met
- GATTGGTA: Met
- CAGTGATG: Met
- AAGTGATT: Met
- GATCGACC: Not met
- TCATGGGA: Not met
- CGCAAACC: Not met
- GCATACGC: Not met
- CTCGTGAA: Met
- GCCCGAGA: Not met
- TATGACCA: Not met
- CGCGTGAG: Not met
- AAGTGAGT: Met
- AAGTGATC: Met
- ACTATGGA: Not met
- GTACTGCA: Not met
- CGTCCAGC: Not met
- GGGACGTA: Met
- GAGCCCCC: Not met
- AGCACGGC: Met
- AGGTGATC: Met
- ATGTGATC: Met
- AGAAGTGA: Met
- ATCGAAAA: Not met
- CGTGAGTC: Not met
- GAGTGATC: Met
- ATGAGCGC: Met
- CTAAATCC: Met
- TATTTCGA: Met
- ACTTCGCA: Not met
- CGGCCTAA: Not met
- CTGGACCC: Not met
- ATGACAGC: Met
- CTGAATCA: Not met
- CAGACCAA: Not met

* * *

PBM E-score listing for selected sequences.
- System Name: Abf1 (UniProt P14164)
- Sequence: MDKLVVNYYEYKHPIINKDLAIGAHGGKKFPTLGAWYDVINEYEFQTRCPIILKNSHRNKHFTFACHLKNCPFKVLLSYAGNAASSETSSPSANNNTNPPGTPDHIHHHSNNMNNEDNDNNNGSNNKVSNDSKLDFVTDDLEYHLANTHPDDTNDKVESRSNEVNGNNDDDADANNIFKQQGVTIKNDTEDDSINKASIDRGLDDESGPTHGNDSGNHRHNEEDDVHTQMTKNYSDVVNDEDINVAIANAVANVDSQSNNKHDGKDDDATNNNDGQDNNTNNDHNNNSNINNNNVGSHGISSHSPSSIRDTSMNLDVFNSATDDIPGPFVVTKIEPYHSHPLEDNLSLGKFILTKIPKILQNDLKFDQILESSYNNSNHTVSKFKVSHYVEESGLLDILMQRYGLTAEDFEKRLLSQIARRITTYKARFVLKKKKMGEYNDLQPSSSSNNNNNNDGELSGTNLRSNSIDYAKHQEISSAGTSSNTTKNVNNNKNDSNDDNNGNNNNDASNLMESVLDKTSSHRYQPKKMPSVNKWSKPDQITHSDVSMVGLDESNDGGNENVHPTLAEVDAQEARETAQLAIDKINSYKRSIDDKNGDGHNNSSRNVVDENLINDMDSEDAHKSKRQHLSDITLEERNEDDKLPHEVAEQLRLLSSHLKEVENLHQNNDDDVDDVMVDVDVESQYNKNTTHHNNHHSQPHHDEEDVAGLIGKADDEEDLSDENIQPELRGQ
- Assay Remarks: PBM E-score (8-mer binding enrichment) (E-score (-0.5 to 0.5)); higher = stronger / more preferred TF binding
- Conditions Used: protein concentration: 200 nM; construct: GST-full length
In all, about 33,000 sequences were measured (“E-score (-0.5 to 0.5)”: median about -0.015, highest 2% from about 0.3 on). This excerpt belongs to a sample that is enriched for the highest values.
Endpoint Name: PBM E-score

* ATAAATAG | 0.104
* AATAAATG | 0.149
* ATAAATTG | 0.115
* TCCCACGA | 0.326
* ATATAAAC | 0.0743
* AGTAAATA | 0.103
* CCTCCGTA | 0.116
* TGATTCAA | 0.0649
* CTAAATTA | 0.0644
* ATAAATTA | 0.362
* ATAAATAT | 0.316
* CGTAAATC | 0.131
* CGTGCAAG | 0.169
* ACGCACGC | -0.0387
* GTAAACCA | -0.0676
* GAGGTCGC | 0.0116
* CCAGCCAC | -0.0544
* CACGGACA | 0.162
* ACTGGCCG | -0.142
* GAGCACTA | 0.0823
* CGTGCACA | 0.196
* TCGCACAA | 0.167
* ATATAAAG | 0.146
* CAGGTAAG | -0.0344
* CGTAAATA | 0.299
* GACTGCGA | -0.206
* CAAGGAGC | -0.363
* AACGGACG | 0.065
* AATAAAAT | 0.2
* GAGTATAC | 0.0804
* ATACGCGG | -0.114
* CCGCACGA | 0.376
* ACAGTGTC | -0.155
* ACGCACGT | 0.105
* GATAAATA | 0.257

* * *

- System Name: Abf1 (UniProt P14164)
- Sequence: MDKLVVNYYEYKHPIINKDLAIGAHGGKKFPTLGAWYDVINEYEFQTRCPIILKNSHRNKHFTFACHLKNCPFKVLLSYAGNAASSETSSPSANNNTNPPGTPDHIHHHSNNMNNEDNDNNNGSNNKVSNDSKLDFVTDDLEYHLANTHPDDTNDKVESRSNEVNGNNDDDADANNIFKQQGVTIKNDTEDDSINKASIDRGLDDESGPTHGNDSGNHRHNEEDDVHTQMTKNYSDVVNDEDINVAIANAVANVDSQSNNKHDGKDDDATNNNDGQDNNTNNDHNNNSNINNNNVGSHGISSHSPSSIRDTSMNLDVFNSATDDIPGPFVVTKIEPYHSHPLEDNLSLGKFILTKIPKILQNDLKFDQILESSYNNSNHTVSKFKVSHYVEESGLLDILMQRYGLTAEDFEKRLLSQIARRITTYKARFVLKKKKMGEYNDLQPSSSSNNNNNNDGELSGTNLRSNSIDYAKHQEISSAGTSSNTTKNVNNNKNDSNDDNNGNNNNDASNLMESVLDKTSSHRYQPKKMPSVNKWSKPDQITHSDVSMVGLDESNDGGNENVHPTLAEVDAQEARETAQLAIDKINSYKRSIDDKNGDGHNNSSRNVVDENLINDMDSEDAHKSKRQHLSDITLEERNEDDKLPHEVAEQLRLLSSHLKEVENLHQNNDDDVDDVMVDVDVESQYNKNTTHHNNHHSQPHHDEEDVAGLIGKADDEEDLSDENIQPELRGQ
- Assay Remarks: PBM E-score (8-mer binding enrichment) (E-score (-0.5 to 0.5)); higher = stronger / more preferred TF binding
- Conditions Used: protein concentration: 200 nM; construct: GST-full length
The full ranking holds about 33,000 sequences; the median of “E-score (-0.5 to 0.5)” is about -0.015, and the highest 2% start at about 0.3. The list comes from a sample in which the highest values are over-represented; it also holds close analogues and randomly drawn sequences.
PBM E-score listing for selected sequences.
Endpoint Name: PBM E-score

* GTACACGA | 0.362
* ATGTCATA | 0.176
* GCACAGCC | -0.204
* AGTTTATA | 0.0788
* ATGTCATC | 0.394
* GTGATTAA | 0.249
* ACGTACGG | 0.328
